I'd be grateful if you could share measured growth for these entries.
Test system: HCT-116 colon
PROTOCOL DESCRIPTION: NCI-60 one-dose screen, 48 h (100 = growth as untreated, 0 = no growth, -100 = all killed)
CONDITION PARAMETERS: 1 µM
This is part of a sample that, as a whole, favours compounds with a hit. Of some 83,000 tested, about 20% had one in any assay.
// note: answer is a bare numeric in %

Task: What measured growth goes with CC/C(=C(/c1ccc(O)cc1)c1ccc(OCCN(C)C(=O)CCOCCNC(=O)Cc2ccc3c(c2)CN([C@@H]2CCC(=O)NC2=O)C3=O)cc1)c1ccccc1 ?
Result: 100

Task: What would you report for CC/C(=C(\c1ccc(O)cc1)c1ccc(OCCN(C)C(=O)CCOCCNC(=O)c2ccc3c(c2)CN([C@@H]2CCC(=O)NC2=O)C3=O)cc1)c1ccccc1 ?
Result: 92.7

Task: What would you report for CC/C(=C(/c1ccc(O)cc1)c1ccc(OCCN(C)C(=O)COCCOCCNC(=O)c2ccc3c(c2)CN([C@@H]2CCC(=O)NC2=O)C3=O)cc1)c1ccccc1 ?
Result: 97.9

Task: What would you report for CC/C(=C(\c1ccc(O)cc1)c1ccc(OCCN(C)C(=O)COCCNC(=O)Cc2ccc3c(c2)CN([C@@H]2CCC(=O)NC2=O)C3=O)cc1)c1ccccc1 ?
Result: 94.2

---

I'd be grateful if you could share measured growth for these entries.
System: MALME-3M melanoma
PROTOCOL DESCRIPTION: NCI-60 one-dose screen, 48 h (100 = growth as untreated, 0 = no growth, -100 = all killed)
CONDITION PARAMETERS: 10 µM unless noted
This is part of a sample that, as a whole, favours compounds with a hit. Of some 83,000 tested, about 20% had one in any assay.
// note: answer is a bare numeric in %

Task: What measured growth goes with Cc1ccc2nc(SCc3ccccc3F)n(-c3ccccc3)c(=O)c2c1 ?
Result: 118

Task: What would you report for COc1ccc2[nH]c(=O)c(CSc3ccccc3Nc3nccc(-c4ccc(C(F)(F)F)cc4)n3)cc2c1 ?
Result: 47.4

Task: What would you report for Oc1cncc(-c2ccc3ncnc(N4CCc5cc(F)c(Cl)cc54)c3c2)c1 ?
Result: 70.8

Task: What would you report for CC1=C(C)C(=O)C(N2CCSCC2)=CC1=O ?
Result: 91.3

Task: What would you report for O=C1CCC(N2C(=O)c3cccc(NCCOCCOCCOCCC(=O)NCCCC(=O)NC(c4ccc5c(c4)OCO5)c4cc(Cl)c5cccnc5c4O)c3C2=O)C(=O)C1 (centres undefined) ?
Result: 29.3

Task: What would you report for Cc1cc(N=C(N)c2ccccc2)ccc1OCCCCCCCCn1ccnc1 ?
Result: -77.2

Task: What would you report for COc1ccc2[nH]c(=O)cc(-n3ncc(C(=O)/C=C/c4cc(OC)c(OC)c(OC)c4)c3C)c2c1 ?
Result: -25.7

Task: What would you report for O=C(c1cc2cc(OCCCN3CCC3)ccc2[nH]1)N1C[C@@H](CCl)c2c1cc(OCc1ccccc1)c1ccccc21 ?
Result: -73.9

Task: What would you report for COc1ccc(NC(=O)N/N=C/c2c[nH]c3ccccc23)cc1 ?
Result: 61.9

Task: What would you report for NS(=O)(=O)c1ccc(Nc2nc(SCC(=O)c3ccc(F)cc3)nc3ccccc23)cc1 ?
Result: 31.7

Task: What would you report for O=C(CSc1nc2sc3c(c2c(=O)n1-c1ccc(Cl)cc1)CCCC3)N/N=C/C=C/c1ccccc1 ?
Result: -97

Task: What would you report for Cc1[nH]nc2ccc3nc(-c4cn[nH]c4C(F)(F)F)c4c(c3c12)CCCC4 ?
Result: -24

Task: What would you report for O=C(c1ccc(O)cc1)C1[C@H](c2ccccc2Br)[C@@H](c2ccccc2)NC12C(=O)Nc1ccccc12 (some centres undefined) ?
Result: 71.6

Task: What would you report for Nc1cc2ccccc2c(=O)n1NC(=O)c1ccccc1 ?
Result: 84.4

Task: What would you report for O=C(CSc1nnc(-c2ccc(-c3nc4ccccc4[nH]3)cc2)o1)Nc1ccccc1 ?
Result: 93.3

Task: What would you report for CN(C)c1nc(NCCNS(=O)(=O)c2ccc(C(=O)/C=C/c3ccc(Cl)cc3)cc2)nc(N2CCOCC2)n1 ?
Result: 89.2

Task: What would you report for O=C(c1ccc(Cl)cc1)C1[C@H](c2ccccc2Cl)[C@@H](c2ccccc2)NC12C(=O)Nc1ccccc12 (some centres undefined) ?
Result: -34.8

Task: What would you report for NC1(c2ccc(-c3ccc4ncnc(NCc5ccccc5)c4c3)cn2)COC1 ?
Result: 106

Task: What would you report for Cc1ccc2nc(COc3ccc(C(=O)NNC(=O)Nc4ccc(Cl)c(C(F)(F)F)c4)cc3)[nH]c2c1 ?
Result: -48.5

FYI, the data here is from PubChem BioAssay (NCI).
